The values you see were collected from patent US11440906B2.

- Test system: A375 Sensitive cells
- Protocol Notes: Viability test, trypan blue exclusion, A375 Sensitive cells
- Assay type: cell-based, human
- Assay Conditions: Homo sapiens, A-375; 10 μM, 48 h; viable cells as percentage of DMSO control; read-out: Viab A375 10 μM/ 48 h
// bucketize viability at 10 µM: low group = under 7%, middle group = from 7% up to 50%, high group = 50% and over

Nc1nc(Nc2ccccc2SSc2ccccc2Nc2nc(N)nc(-c3cccc(Br)c3)n2)nc(-c2cccc(Br)c2)n1	middle group
Nc1nc(Nc2ccccc2SSc2ccccc2Nc2nc(N)nc(-c3cc4c(cc3Br)OCO4)n2)nc(-c2cc3c(cc2Br)OCO3)n1	high group
Cc1ccc2nc(NC(=N)NC(=N)c3cccc(Br)c3)sc2c1	high group
N=C(NC(=N)c1ccccn1)Nc1nc(-c2cccc([N+](=O)[O-])c2)cs1	high group
Nc1nc(Nc2ccccc2SSc2ccccc2Nc2nc(N)nc(-c3cscc3Br)n2)nc(-c2cscc2Br)n1	middle group
N=C(NC(=N)c1ccncc1)Nc1nc2ccccc2s1	low group
Nc1nc(Nc2ccccc2SSc2ccccc2Nc2nc(N)nc(-c3cccc(F)c3)n2)nc(-c2cccc(F)c2)n1	middle group
Cc1csc(NC(=N)NC(=N)c2ccccn2)n1	high group
Nc1nc(Nc2ccccc2SSc2ccccc2Nc2nc(N)nc(-c3cnccn3)n2)nc(-c2cnccn2)n1	middle group
N=C(NC(=N)c1ccccc1Br)Nc1nc2ccccc2s1	low group
Cc1nc(NC(=N)NC(=N)c2ccncc2)sc1C	middle group
Nc1nc(Nc2ccccc2SSc2ccccc2Nc2nc(N)nc(-c3cccs3)n2)nc(-c2cccs2)n1	low group
Nc1nc(Nc2ccccc2SSc2ccccc2Nc2nc(N)nc(-c3ccncc3)n2)nc(-c2ccncc2)n1	middle group
Cc1csc(NC(=N)NC(=N)c2ccc(Cl)cc2)n1	high group
Nc1nc(Nc2ccccc2SSc2ccccc2Nc2nc(N)nc(-c3ccccc3[N+](=O)[O-])n2)nc(-c2ccccc2[N+](=O)[O-])n1	middle group
Nc1nc(Cc2ccccc2)nc(Nc2ccccc2SSc2ccccc2Nc2nc(N)nc(Cc3ccccc3)n2)n1	middle group
COc1cccc(-c2nc(N)nc(Nc3ccccc3SSc3ccccc3Nc3nc(N)nc(-c4cccc(OC)c4)n3)n2)c1	low group
CCOc1cccc(-c2nc(N)nc(Nc3ccccc3SSc3ccccc3Nc3nc(N)nc(-c4cccc(OCC)c4)n3)n2)c1	low group

---

- Test system: A375 Sensitive cells
- Protocol Notes: Viability test, trypan blue exclusion, A375 Sensitive cells
- Assay type: cell-based, human
- Assay Conditions: Homo sapiens, A-375; 10 μM, 24 h; viable cells as percentage of DMSO control; read-out: Viab A375 10 μM/ 24 h
Property Label: viability at 10 µM (%)

N=C(NC(=N)c1cccc(Br)c1)Nc1nc(-c2cccc([N+](=O)[O-])c2)cs1 [MTF 257]	106
Cc1csc(NC(=N)NC(=N)c2cccc(Br)c2)n1 [MTF 288]	70
Cc1ccc(-c2nc(N)nc(Nc3ccccc3SSc3ccccc3Nc3nc(N)nc(-c4ccc(C)cc4)n3)n2)cc1 [MTF 451]	10.6

---

- System: A375 Sensitive cells
- Protocol Notes: Viability test, trypan blue exclusion, A375 Sensitive cells
- Type: cell-based, human
- Assay Conditions: Homo sapiens, A-375; 10 μM, 48 h; viable cells as percentage of DMSO control; read-out: Viab A375 10 μM/ 48 h
Reported values of viability at 10 µM for individual entries
Property Label: viability at 10 µM

CSc1ccccc1Nc1nc(N)nc(C(Cl)(Cl)Cl)n1	48.2%
N=C(NC(=N)c1ccccc1Cl)Nc1nc2ccccc2s1	68.4%
N=C(NC(=N)c1cccc(F)c1)Nc1nc2ccccc2s1	12.9%
COc1cc(C(=N)NC(=N)Nc2nc3ccccc3s2)cc(OC)c1OC	4.5%
